Biological target: MAP1LC3B 2-119, Q9GZQ8

| Binder | selected by phage display |
| --- | --- |
| AGHQLGLEADGHWGLL [ZNF469, Q96JG9] | confidence 3 (active) |
| GPDSFTVLGNSMPSVF [BCL9, O00512] | confidence 3 (active) |
